Where do the numbers come from? From the kinase profiling compilation of Christmann-Franck et al. (2016).

targetSystem: BTK (human) (UniProt Q06187)
Sequence (Q06187 whole entry, looked up): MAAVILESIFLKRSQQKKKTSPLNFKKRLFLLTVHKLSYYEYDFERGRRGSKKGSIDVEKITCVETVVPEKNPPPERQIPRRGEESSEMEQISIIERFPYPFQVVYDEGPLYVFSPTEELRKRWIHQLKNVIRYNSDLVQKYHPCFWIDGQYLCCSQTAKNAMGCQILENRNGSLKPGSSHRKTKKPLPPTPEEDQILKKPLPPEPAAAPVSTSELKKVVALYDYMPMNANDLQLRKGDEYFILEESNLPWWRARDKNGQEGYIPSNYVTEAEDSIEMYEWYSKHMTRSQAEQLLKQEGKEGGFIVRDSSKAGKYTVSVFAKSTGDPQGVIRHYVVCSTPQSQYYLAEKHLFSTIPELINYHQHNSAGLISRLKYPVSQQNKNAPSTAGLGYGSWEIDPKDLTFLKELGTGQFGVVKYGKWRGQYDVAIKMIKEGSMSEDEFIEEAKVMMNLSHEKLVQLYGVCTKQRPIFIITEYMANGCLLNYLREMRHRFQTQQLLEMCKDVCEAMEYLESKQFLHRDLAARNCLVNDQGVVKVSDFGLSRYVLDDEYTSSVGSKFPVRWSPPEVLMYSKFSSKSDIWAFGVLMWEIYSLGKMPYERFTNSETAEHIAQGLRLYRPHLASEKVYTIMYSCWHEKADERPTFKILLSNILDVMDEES
testSummary: radiometric filter-binding kinase assay
statedConditions: compound 1.0 µM
quantityName: residual activity (%)

Reference set, count: 3
Cn1c(=O)c2c(ncn2C)n(C)c1=O; 78
COc1cc2ncn(-c3cc(OCc4ccccc4S(C)(=O)=O)c(C#N)s3)c2cc1OC; 63
NC(=O)c1ccc(-c2ccc(Oc3cncc4sc(-c5nn[nH]n5)cc34)cc2)cc1; 95

I: O=C1Nc2nc(-c3c(O)cccc3OCC3CC3)cc(C3CCCNC3)c2CO1 (centres undefined)
II: COc1ccc(-n2ncc3cnc(Nc4cc(OC)c(OC)c(OCCCN5CCN(C)CC5)c4)nc32)cc1
Data request: Between the entries labelled I and II , which has a larger residual activity value on record? Kindly state the label of the option you pick.
Data returned: I
(I: 100%, II: 14%)

1: CC1=C(CO)C(=O)O[C@@H]([C@@H](C)[C@H]2CC[C@H]3[C@@H]4C[C@H]5O[C@]56[C@@H](O)C=CC(=O)[C@]6(C)C4CC[C@]23C)C1 (some centres undefined)
2: Cc1ccc(Sc2cnc(Nc3cccc(Br)n3)s2)cc1C(=O)N1CCN(C(=O)CN)CC1
Data request: Could you check which of 1 and 2 has a smaller value for residual activity? The response must carry the label of the picked entry.
Data returned: 2
